These measurements were taken from patent US20120135923A1.

molecular target: hMC5-R (human) (UniProt P33032); test: competition with [125I]-NDP-α-MSH, CHO-K1 membranes
Sequence (P33032 whole entry): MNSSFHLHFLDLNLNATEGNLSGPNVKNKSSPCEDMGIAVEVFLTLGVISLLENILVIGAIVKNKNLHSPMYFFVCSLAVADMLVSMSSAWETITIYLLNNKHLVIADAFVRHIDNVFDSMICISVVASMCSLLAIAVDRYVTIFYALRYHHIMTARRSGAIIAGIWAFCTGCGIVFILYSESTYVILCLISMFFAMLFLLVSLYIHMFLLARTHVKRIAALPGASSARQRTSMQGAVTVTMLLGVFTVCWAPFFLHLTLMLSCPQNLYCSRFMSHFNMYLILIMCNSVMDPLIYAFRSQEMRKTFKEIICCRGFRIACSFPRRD
Bridge positions count the residues as written; N and C are the ends. Square brackets hold non-standard residues; d marks the D form. Ends that are not written are not given here. Bip = N[C@@H](Cc1ccc(-c2ccccc2)cc1)C(=O)O; 2Nal = N[C@@H](Cc1ccc2ccccc2c1)C(=O)O; d2Nal = N[C@H](Cc1ccc2ccccc2c1)C(=O)O; hArg = N=C(N)NCCCC[C@H](N)C(=O)O; Nle = CCCC[C@H](N)C(=O)O; Ahx = NCCCCCC(=O)O; GABA = NCCCC(=O)O; βAla = NCCC(=O)O
OBSERVED PROPERTY: Ki (nM)
Unit nM implied. Number only.

Data request: Entry under review: Ac-[Nle]CH[d2Nal]RW[Ahx]C-NH2 (disulfide 2-8) [Ac-Nle-c(Cys-His-D-2-Nal-Arg-Trp-Ahx-Cys)-NH2] . Reported Ki?
Data returned: 0.366

Data request: Then this binder: [dF]CH[dF]R[Bip][βAla][dC]T-NH2 (disulfide 2-8; N-terminus assumed; SMILES C[C@@H](O)[C@H](NC(=O)[C@H]1CSSC[C@H](NC(=O)[C@H](N)Cc2ccccc2)C(=O)N[C@@H](Cc2c[nH]cn2)C(=O)N[C@H](Cc2ccccc2)C(=O)N[C@@H](CCCNC(=N)N)C(=O)N[C@@H](Cc2ccc(-c3ccccc3)cc2)C(=O)NCCC(=O)N1)C(N)=O) [D-Phe-c(Cys-His-D-Phe-Arg-Bip-β-Ala-D-Cys)-Thr-NH2]
Data returned: 1130

Data request: Then this binder: Ac-[Nle]CH[d2Nal]RW[GABA]C-NH2 (disulfide 2-8) [Ac-Nle-c(Cys-His-D-2-Nal-Arg-Trp-Gaba-Cys)-NH2]
Data returned: 1.11

Data request: Then this binder: Ac-[Nle]C[dA]H[d2Nal]R[2Nal]C-NH2 (disulfide 2-8; SMILES CCCC[C@H](NC(C)=O)C(=O)N[C@H]1CSSC[C@@H](C(N)=O)NC(=O)[C@H](Cc2ccc3ccccc3c2)NC(=O)[C@H](CCCNC(=N)N)NC(=O)[C@@H](Cc2ccc3ccccc3c2)NC(=O)[C@H](Cc2c[nH]cn2)NC(=O)[C@@H](C)NC1=O) [Ac-Nle-c(Cys-D-Ala-His-D-2-Nal-Arg-2-Nal-Cys)-NH2]
Data returned: 94.6

Data request: Then this binder: Ac-[Nle]C[dA]H[dF]RW[dA]C-NH2 (disulfide 2-9; SMILES CCCC[C@H](NC(C)=O)C(=O)N[C@H]1CSSC[C@@H](C(N)=O)NC(=O)[C@@H](C)NC(=O)[C@H](Cc2c[nH]c3ccccc23)NC(=O)[C@H](CCCNC(=N)N)NC(=O)[C@@H](Cc2ccccc2)NC(=O)[C@H](Cc2c[nH]cn2)NC(=O)[C@@H](C)NC1=O) [Ac-Nle-c(Cys-D-Ala-His-D-Phe-Arg-Trp-D-Ala-Cys)-NH2]
Data returned: 4940

Data request: Then this binder: [dF]CH[dF][hArg][Bip][βAla][dC]T-NH2 (disulfide 2-8; N-terminus assumed; SMILES C[C@@H](O)[C@H](NC(=O)[C@H]1CSSC[C@H](NC(=O)[C@H](N)Cc2ccccc2)C(=O)N[C@@H](Cc2c[nH]cn2)C(=O)N[C@H](Cc2ccccc2)C(=O)N[C@@H](CCCCNC(=N)N)C(=O)N[C@@H](Cc2ccc(-c3ccccc3)cc2)C(=O)NCCC(=O)N1)C(N)=O) [D-Phe-c(Cys-His-D-Phe-hArg-Bip-β-Ala-D-Cys)-Thr-NH2]
Data returned: 1220

Data request: Then this binder: [dF]CH[dF]RW[GABA][dC]T-NH2 (disulfide 2-8; N-terminus assumed; SMILES C[C@@H](O)[C@H](NC(=O)[C@H]1CSSC[C@H](NC(=O)[C@H](N)Cc2ccccc2)C(=O)N[C@@H](Cc2c[nH]cn2)C(=O)N[C@H](Cc2ccccc2)C(=O)N[C@@H](CCCNC(=N)N)C(=O)N[C@@H](Cc2c[nH]c3ccccc23)C(=O)NCCCC(=O)N1)C(N)=O) [D-Phe-c(Cys-His-D-Phe-Arg-Trp-Gaba-D-Cys)-Thr-NH2]
Data returned: 1260
